Origin of measurements: the supplement of paper PMC12667976

B1: library; numbered along this chain (parent)
chain: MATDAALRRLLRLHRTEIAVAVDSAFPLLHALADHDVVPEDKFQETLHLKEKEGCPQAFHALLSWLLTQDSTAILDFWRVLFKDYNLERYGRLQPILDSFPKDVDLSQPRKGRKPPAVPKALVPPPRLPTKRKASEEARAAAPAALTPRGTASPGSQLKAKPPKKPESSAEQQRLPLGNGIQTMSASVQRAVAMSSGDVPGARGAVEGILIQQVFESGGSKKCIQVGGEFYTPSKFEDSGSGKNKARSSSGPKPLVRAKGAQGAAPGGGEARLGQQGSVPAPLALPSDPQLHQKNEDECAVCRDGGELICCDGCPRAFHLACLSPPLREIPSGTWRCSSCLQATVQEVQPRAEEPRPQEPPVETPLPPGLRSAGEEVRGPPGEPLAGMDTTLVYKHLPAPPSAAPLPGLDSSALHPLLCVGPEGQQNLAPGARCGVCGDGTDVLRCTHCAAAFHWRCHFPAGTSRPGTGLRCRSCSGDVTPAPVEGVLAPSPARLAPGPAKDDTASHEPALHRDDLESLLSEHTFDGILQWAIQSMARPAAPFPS

Variants of: B1
Assay: AIRE transcriptional activation functional score (insulin promoter-GFP; nonsense median 0, synonymous median 1) (normalised score); higher = higher AIRE activity (more reporter activation)
Details: with insulin promoter-GFP reporter in HEK293
AIRE transcriptional activation functional score values, listed per item
Measured metric: AIRE transcriptional activation functional score

# Sequence variant, Meas value
measured = [
    ("D478Y", 0.902),
    ("K161T", 0.898),
    ("S506Q", 0.92),
    ("Q342N", 0.925),
]
